// provenance: patent US7960409B2

- TGT: recombinant human 5-lipoxygenase (Homo sapiens, UniProt P09917)
- Sequence (P09917 1-674): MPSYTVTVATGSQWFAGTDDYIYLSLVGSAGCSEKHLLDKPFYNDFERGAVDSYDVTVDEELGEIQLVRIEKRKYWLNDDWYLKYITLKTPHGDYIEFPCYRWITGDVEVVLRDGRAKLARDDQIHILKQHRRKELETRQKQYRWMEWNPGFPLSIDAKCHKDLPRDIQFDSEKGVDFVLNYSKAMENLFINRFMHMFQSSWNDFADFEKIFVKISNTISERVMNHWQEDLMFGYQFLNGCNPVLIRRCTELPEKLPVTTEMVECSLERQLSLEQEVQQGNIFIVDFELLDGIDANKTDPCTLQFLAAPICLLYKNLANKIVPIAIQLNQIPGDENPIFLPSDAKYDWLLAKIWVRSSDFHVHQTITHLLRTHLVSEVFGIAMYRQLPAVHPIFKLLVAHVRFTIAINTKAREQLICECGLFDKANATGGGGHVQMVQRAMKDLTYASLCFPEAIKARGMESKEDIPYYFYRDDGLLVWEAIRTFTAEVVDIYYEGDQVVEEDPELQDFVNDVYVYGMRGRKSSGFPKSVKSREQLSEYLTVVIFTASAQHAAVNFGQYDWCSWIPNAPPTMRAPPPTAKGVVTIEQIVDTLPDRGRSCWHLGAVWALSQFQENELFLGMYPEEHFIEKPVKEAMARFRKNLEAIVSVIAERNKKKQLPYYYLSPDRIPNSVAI
- TEST: Human 5-Lipoxygenase Enzyme Assay
- ASSAY_CONTEXT: spectrophotometric assay, purified recombinant human 5-lipoxygenase, 20 μM arachidonic acid
PARAMETER: IC50 (nM)
Answers are plain numbers, in nM.

Example entries begin here.
>  <MOLECULE>
CC[C@](O)(c1cn(Cc2ccc3c(-c4coc(C)n4)cc(=O)oc3c2)nn1)C(F)(F)F

>  <IC50 / nM>
351

$$$$
>  <MOLECULE>
CC[C@](O)(c1cn(Cc2ccc3c(-c4ccccc4)cc(=O)oc3c2)nn1)C(F)(F)F

>  <IC50 / nM>
45

$$$$
>  <MOLECULE>
CC[C@](O)(c1cn(Cc2ccc3c(-c4cc(Cl)cc(Cl)c4)cc(C#N)nc3c2)nn1)C(F)(F)F

>  <IC50 / nM>
86

$$$$
>  <MOLECULE>
O=c1cc(-c2cccc(F)c2)c2ccc(Cn3cc(Cc4ccccc4)nn3)cc2o1

>  <IC50 / nM>
951

$$$$
>  <MOLECULE>
CCC(O)(CC)c1cn(Cc2ccc3c(-c4cccc(F)c4)cc(=O)oc3c2)nn1

>  <IC50 / nM>
324

$$$$

# return IC50 for each item in the list
1. CC[C@](O)(c1cn(Cc2ccc3c(-c4ccc(F)cc4)cc(OC)nc3c2)nn1)C(F)(F)F
2. CC[C@](O)(c1cn(Cc2ccc3c(-c4ccsc4)cc(=O)oc3c2)nn1)C(F)(F)F
3. N#Cc1cc(-c2ccccc2)c2ccc(Cn3cc(C(O)(C4CC4)C4CC4)nn3)cc2n1
4. CCC(O)(c1nnn(Cc2ccc3c(-c4cccc(F)c4)cc(=O)oc3c2)c1C)C(F)(F)F (stereo not drawn)
5. CC[C@](O)(c1cn(Cc2ccc3c(-c4ccccc4)cc(C(N)=O)nc3c2)nn1)C(F)(F)F
6. O=c1cc(-c2ccc(F)cc2)c2ccc(Cn3cc(C(O)(C4CC4)C4CC4)nn3)cc2o1
7. CC[C@](O)(c1cn(Cc2ccc3c(-c4cccc(F)c4)cc(C#N)nc3c2)nn1)C(F)(F)F

[41, 50, 82, 298, 35, 98, 54]

Please look at the items below and tell me IC50 for each one, in order.
1. CC[C@](O)(c1cn(Cc2ccc3c(-c4ccc(F)cc4)cc(N(C)C)nc3c2)nn1)C(F)(F)F
2. CC[C@](O)(c1cn(Cc2ccc3c(-c4ccc(F)cc4)cc(C#N)nc3c2)nn1)C(F)(F)F
3. CCCC(O)(c1cn(Cc2ccc3c(-c4cccc(F)c4)cc(=O)oc3c2)nn1)C(F)(F)F (stereo not drawn)
4. CC[C@](O)(c1cn(Cc2ccc3c(-c4cccc(F)c4)cc(=O)oc3c2)nn1)C(F)(F)F
5. N#Cc1cc(-c2cccc(F)c2)c2ccc(Cn3cc(C(O)(C4CC4)C4CC4)nn3)cc2n1
6. CCC(O)(CC)c1cn(Cc2ccc3c(-c4ccccc4)cc(C#N)nc3c2)nn1

17
51
37
38
62
275
